# Test system: POLCO
# PROTOCOL TEXT: Pre-emergence herbicidal action against POLCO
# Type: in vivo, Polygonum convolvulus
# MEASUREMENT SETUP: Fallopia convolvulus, 504 h, dosage 80 g/ha
ATTRIBUTE MEASURED: pest or weed control at 80 g/ha
Please give the number followed by its unit.

# MOLECULE, pest or weed control at 80 g/ha
records = [
    ("CCn1nnnc1NC(=O)c1ccc(C(F)(F)F)c(C(=O)NC2CC2)c1C [Example 2-27]", "100%"),
    ("CCc1c(C(=O)Nc2nnnn2C)ccc(C(F)F)c1C(=O)NC [Example 1-277]", "90%"),
    ("CCn1nnnc1NC(=O)c1ccc(C(F)(F)F)c(C(=O)NC2CC2)c1OC [Example 2-58]", "80%"),
    ("CCNC(=O)c1c(Br)ccc(C(=O)Nc2nnnn2CC)c1Br [Example 2-342]", "80%"),
]

Consider the molecule shown here: CCc1c(C(=O)Nc2nnnn2C)ccc(C(F)(F)F)c1C(=O)NC [Example 1-271] What is its recorded pest or weed control at 80 g/ha? 80%

Origin of measurements: patent US12655116B2
